Overview of reported CD28 MFI at 33.3 nM across a group of molecules:
Target: CD28 (Homo sapiens, UniProt P10747)
Experiment: Flow binding to Jurkat/IL2 reporter cells (CD28)
Design: host or cells: Jurkat cells expressing an IL-2-luciferase reporter
Settings: Table E25; linker variants; 33.3 nM; Jurkats (CD28)
quantity.measured: CD28 MFI at 33.3 nM

molecule	test.result
E35D/D46V/M47L/V68M/L85Q/E88D delta (protein) VIHVTKEVKEVATLSCGHNVSVEELAQTRIYWQKDKKMVLTMMSGVLNIWPEYKNRTIFDITNNLSIMILALRPSDEGTYECVVQKYDKDAFKREHLAEVTLSVKTHTCPPCPAPEAEGAPSVFLFPPKPKDTLMISRTPEVTCVVVDVSHEDPEVKFNWYVDGVEVHNAKTKPREEQYNSTYRVVSVLTVLHQDWLNGKEYKCKVSNKALPAPIEKTISKAKGQPREPQVYTLPPSREEMTKNQVSLTCLVKGFYPSDIAVEWESNGQPENNYKTTPPVLDSDGSFFLYSKLTVDKSRWQQGNVFSCSVMHEALHNHYTQKSLSLSPG	4173
E35D/M47V/N48K/V68M/K89N GS(G4S)3 (protein, UniProt P33681 35-288, looked up, variant E35D M47V N48K V68M K89N, GS(G4S)3 linker) T-lymphocyte activation …: VIHVTKEVKEVATLSCGHNVSVEELAQTRIYWQKDKKMVLTMMSGDVKIWPEYKNRTIFDITNNLSIMILALRPSDEGTYECVVLKYENDAFKREHLAEVTLSVKADFPTPSISDFEIPTSNIRRIICSTSGGFPEPHLSWLENGEELNAINTTVSQDPETELYAVSSKLDFNMTTNHSFMCLIKYGHLRVNQTFNWNTTKQEHFPDNLLPSWAITLISVNGIFVICCLTYCFAPRCRERRRNERLRRESVRPV	2109
E35D/D46V/M47L/V68M/L85Q/E88D (EAAAK)3 (protein, UniProt P33681 35-288, looked up, variant E35D D46V M47L V68M L85Q E88D, (EAAAK)3 linker) T-lymphocyte activation …: VIHVTKEVKEVATLSCGHNVSVEELAQTRIYWQKDKKMVLTMMSGVLNIWPEYKNRTIFDITNNLSIMILALRPSDEGTYECVVQKYDKDAFKREHLAEVTLSVKADFPTPSISDFEIPTSNIRRIICSTSGGFPEPHLSWLENGEELNAINTTVSQDPETELYAVSSKLDFNMTTNHSFMCLIKYGHLRVNQTFNWNTTKQEHFPDNLLPSWAITLISVNGIFVICCLTYCFAPRCRERRRNERLRRESVRPV	197
E35D/D46V/M47L/V68M/L85Q/E88D GS(G4S)3 (protein, UniProt P33681 35-288, looked up, variant E35D D46V M47L V68M L85Q E88D, GS(G4S)3 linker) T-lymphocyte activation …: VIHVTKEVKEVATLSCGHNVSVEELAQTRIYWQKDKKMVLTMMSGVLNIWPEYKNRTIFDITNNLSIMILALRPSDEGTYECVVQKYDKDAFKREHLAEVTLSVKADFPTPSISDFEIPTSNIRRIICSTSGGFPEPHLSWLENGEELNAINTTVSQDPETELYAVSSKLDFNMTTNHSFMCLIKYGHLRVNQTFNWNTTKQEHFPDNLLPSWAITLISVNGIFVICCLTYCFAPRCRERRRNERLRRESVRPV	267
E35D/M47V/N48K/V68M/K89N EAAAK (protein, UniProt P33681 35-288, looked up, variant E35D M47V N48K V68M K89N, EAAAK linker) T-lymphocyte activation …: VIHVTKEVKEVATLSCGHNVSVEELAQTRIYWQKDKKMVLTMMSGDVKIWPEYKNRTIFDITNNLSIMILALRPSDEGTYECVVLKYENDAFKREHLAEVTLSVKADFPTPSISDFEIPTSNIRRIICSTSGGFPEPHLSWLENGEELNAINTTVSQDPETELYAVSSKLDFNMTTNHSFMCLIKYGHLRVNQTFNWNTTKQEHFPDNLLPSWAITLISVNGIFVICCLTYCFAPRCRERRRNERLRRESVRPV	2634
